Test system: T-Rex 293 cell line SC3 cells lacking increased expression of androgen receptor protein
assay.method.text: Cellular growth inhibition, T-Rex 293 SC3 cells without doxycycline, CellTiter-Glo
Format: cell-based
protocol.conditions: 72 h, T-Rex 293 SC3 cells not exposed to doxycycline, CellTiter-Glo 2.0

{"columns": ["structure.smiles.string", "GI50"],
 "data": [
  ["CCNC(=O)C[C@@H]1N=C(c2ccc(Oc3ncc(C(=O)N[C@H]4C(C)(C)[C@H](Oc5ccc(C#N)c(Cl)c5)C4(C)C)cn3)cc2)c2c(sc(C)c2C)-n2c(C)nnc21", "1500 to 3000 nM"],
  ["CC[C@@H]1N=C(c2ccc(N3CC(C4CCN(c5ncc(C(=O)N[C@H]6C(C)(C)[C@H](Oc7ccc(C#N)c(Cl)c7)C6(C)C)cn5)CC4)C3)cc2)c2c(sc(C)c2C)-n2c(C)nnc21", "> 3000 nM"],
  ["Cc1sc2c(c1C)C(c1ccc(CC[C@@H]3CCCN(c4ncc(C(=O)N[C@H]5C(C)(C)[C@H](Oc6ccc(C#N)c(Cl)c6)C5(C)C)cn4)C3)cc1)=N[C@@H](Cc1ncco1)c1nnc(C)n1-2", "500 to 1500 nM"]
]}

---

study.target: BRD4-BD1 (Homo sapiens)
assay.method.text: bromoKdELECT assay for binding affinity to BRD4-BD1
protocol.conditions: Table 6
measurement.label: Kd

{"columns": ["compound", "data.value"],
 "data": [
  ["Cc1sc2c(c1C)C(c1ccc(Cl)cc1)=N[C@@H](CC(=O)NCCOCCOCCOC1CCN(c3ncc(C(=O)N[C@H]4C(C)(C)[C@H](Oc5ccc(C#N)c(Cl)c5)C4(C)C)cn3)C1)c1nnc(C)n1-2 (stereo partly drawn)", "500 to 2500 nM"],
  ["Cc1sc2c(c1C)C(c1ccc(Cl)cc1)=N[C@@H](CC(=O)NCCCCCCCOC1CCN(c3ncc(C(=O)N[C@H]4C(C)(C)[C@H](Oc5ccc(C#N)c(Cl)c5)C4(C)C)cn3)CC1)c1nnc(C)n1-2", "> 2500 nM"],
  ["COCC[C@@H]1N=C(c2ccc(CCCOC3CCN(c4ncc(C(=O)N[C@H]5C(C)(C)[C@H](Oc6ccc(C#N)c(Cl)c6)C5(C)C)cn4)CC3)cc2)c2c(sc(C)c2C)-n2c(C)nnc21", "> 2500 nM"],
  ["Cc1sc2c(c1C)C(c1ccc(Cl)cc1)=N[C@@H](CC(=O)NCCOCCOCCOCC1CN(c3ncc(C(=O)N[C@H]4C(C)(C)[C@H](Oc5ccc(C#N)c(Cl)c5)C4(C)C)cn3)C1)c1nnc(C)n1-2", "50 to 500 nM"],
  ["Cc1sc2c(c1C)C(c1ccc(Cl)cc1)=N[C@@H](CC(=O)NCCN(C)c1ncc(C(=O)N[C@H]3C(C)(C)[C@H](Oc4ccc(C#N)c(Cl)c4)C3(C)C)cn1)c1nnc(C)n1-2", "50 to 500 nM"],
  ["Cc1sc2c(c1C)C(c1ccc(OCCOC3CCN(c4ncc(C(=O)N[C@H]5C(C)(C)[C@H](Oc6ccc(C#N)c(Cl)c6)C5(C)C)cn4)CC3)cc1)=N[C@@H](CC(=O)OC(C)(C)C)c1nnc(C)n1-2", "> 2500 nM"],
  ["Cc1sc2c(c1C)C(c1ccc(Cl)cc1)=N[C@H](CC(=O)NCCOCCOCCOCCOCCN(C)c1ncc(C(=O)N[C@H]3C(C)(C)[C@H](Oc4ccc(C#N)c(Cl)c4)C3(C)C)cn1)c1nnc(C)n1-2", "> 2500 nM"],
  ["CCNC(=O)C[C@@H]1N=C(c2ccc(OCC3CN(c4ncc(C(=O)N[C@H]5C(C)(C)[C@H](Oc6ccc(C#N)c(Cl)c6)C5(C)C)cn4)C3)cc2)c2c(sc(C)c2C)-n2c(C)nnc21", "50 to 500 nM"],
  ["CCNC(=O)C[C@@H]1N=C(c2ccc(N3CCC(N(C)C4CCN(c5ncc(C(=O)N[C@H]6C(C)(C)[C@H](Oc7ccc(C#N)c(Cl)c7)C6(C)C)cn5)CC4)CC3)cc2)c2c(sc(C)c2C)-n2c(C)nnc21", "< 50 nM"]
]}

---

GI50 overview
System: T47D cells
assay.method.text: Cellular growth inhibition assay for T47D cells, CellTiter-Glo
Assay type: cell-based, human
protocol.conditions: 72 hours treatment, CellTiter-Glo 2.0 cell viability
measurement.label: GI50

{"columns": ["compound", "study.target", "measurement.label", "data.value"],
 "data": [
  ["Cc1sc2c(c1C)C(c1ccc(C3CC3C3CC4(CCN(c5ncc(C(=O)N[C@H]6C(C)(C)[C@H](Oc7ccc(C#N)c(Cl)c7)C6(C)C)cn5)CC4)C3)cc1)=N[C@@H](C)c1nnc(C)n1-2 (stereo partly drawn)", "T47D cells", "GI50", "> 3000 nM"],
  ["COCC[C@@H]1N=C(c2ccc(OC3CC4(CCCN(c5ncc(C(=O)N[C@H]6C(C)(C)[C@@H](Oc7ccc(C#N)c(Cl)c7)C6(C)C)cn5)C4)C3)cc2)c2c(sc(C)c2C)-n2c(C)nnc21", "T47D cells", "GI50", "> 3000 nM"],
  ["Cc1sc2c(c1C)C(c1ccc(N3CCC4(CC3)CC(Cc3ncc(C(=O)N[C@H]5C(C)(C)[C@H](Oc6ccc(C#N)c(Cl)c6)C5(C)C)cn3)C4)cc1)=NC(Cc1ncco1)c1nnc(C)n1-2 (stereo partly drawn) [Compound I-460]", "T47D cells", "GI50", "< 500 nM"]
]}

---

# Lookup of reported GI50 keyed by entry
System: VCaP cells
assay.method.text: Cellular growth inhibition assay for VCaP cells, CellTiter-Glo
Format: cell-based, human
protocol.conditions: 72 hours treatment, CellTiter-Glo 2.0
measurement.label: GI50

{"columns": ["molecule", "measurement.label", "data.value"],
 "data": [
  ["Cc1sc2c(c1C)C(c1ccc(N3CCC[C@H](C(=O)NCc4ncc(C(=O)N[C@H]5C(C)(C)[C@H](Oc6ccc(C#N)c(Cl)c6)C5(C)C)cn4)C3)cc1)=N[C@@H](Cc1ncco1)c1nnc(C)n1-2 [Compound I-331]", "GI50", "< 500 nM"],
  ["Cc1sc2c(c1C)C(c1ccc([C@H]3C[C@H](C[C@@H]4CCCN(c5ncc(C(=O)N[C@H]6C(C)(C)[C@H](Oc7ccc(C#N)c(Cl)c7)C6(C)C)cn5)C4)C3)cc1)=N[C@@H](Cc1ncco1)c1nnc(C)n1-2 [Compound I-403]", "GI50", "> 3000 nM"],
  ["Cc1sc2c(c1C)C(c1ccc(C3CC(C4CCN(c5ncc(C(=O)N[C@H]6C(C)(C)[C@H](Oc7ccc(C#N)c(Cl)c7)C6(C)C)cn5)CC4)C3)cc1)=NC(C)c1nnc(C)n1-2 (stereo partly shown) [Compound I-467]", "GI50", "< 500 nM"],
  ["Cc1sc2c(c1C)C(c1ccc(OC3CC4(CCN(c5ncc(C(=O)N[C@H]6C(C)(C)[C@H](Oc7ccc(C#N)c(Cl)c7)C6(C)C)cn5)CC4)C3)cc1)=NC(C(F)(F)F)c1nnc(C)n1-2 (stereo partly shown) [Compound I-601]", "GI50", "< 500 nM"],
  ["Cc1sc2c(c1C)C(c1ccc(C(C)(C)N3CC4(CCN(c5ncc(C(=O)N[C@H]6C(C)(C)[C@H](Oc7ccc(C#N)c(Cl)c7)C6(C)C)cn5)CC4)C3)cc1)=N[C@@H](Cc1ncco1)c1nnc(C)n1-2 [Compound I-396]", "GI50", "> 3000 nM"],
  ["Cc1sc2c(c1C)C(c1ccc(Cl)cc1)=N[C@@H](CC(=O)NCCCCCOC1CCN(c3ncc(C(=O)N[C@H]4C(C)(C)[C@H](Oc5ccc(C#N)c(Cl)c5)C4(C)C)cn3)CC1)c1nnc(C)n1-2", "GI50", "< 500 nM"],
  ["Cc1sc2c(c1C)C(c1ccc(OC3CC4(CCN(c5ncc(C(=O)N[C@H]6C(C)(C)[C@H](Oc7ccc(C#N)c(Cl)c7)C6(C)C)cn5)CC4)C3)cc1)=NC(C(F)(F)F)c1nnc(C)n1-2 (stereo partly shown) [Compound I-600]", "GI50", "> 3000 nM"],
  ["Cc1sc2c(c1C)C(c1ccc([C@H]3C[C@H](C[C@@H]4CCCN(c5ncc(C(=O)N[C@H]6C(C)(C)[C@H](Oc7ccc(C#N)c(Cl)c7)C6(C)C)cn5)C4)C3)cc1)=N[C@@H](Cc1ncco1)c1nnc(C)n1-2 [Compound I-402]", "GI50", "500 to 1500 nM"],
  ["Cc1sc2c(c1C)C(c1ccc(CC3CC(OC4CCN(c5ncc(C(=O)N[C@H]6C(C)(C)[C@H](Oc7ccc(C#N)c(Cl)c7)C6(C)C)cn5)CC4)C3)cc1)=N[C@@H](C)c1nnc(C)n1-2 (stereo partly shown) [Compound I-446]", "GI50", "1500 to 3000 nM"],
  ["Cc1sc2c(c1C)C(c1ccc(C[C@H]3C[C@@H](OC4CCN(c5ncc(C(=O)N[C@H]6C(C)(C)[C@H](Oc7ccc(C#N)c(Cl)c7)C6(C)C)cn5)CC4)C3)cc1)=N[C@@H](Cc1ncco1)c1nnc(C)n1-2", "GI50", "< 500 nM"],
  ["Cc1sc2c(c1C)C(c1ccc(C3CC(CC4CN(c5ncc(C(=O)N[C@H]6C(C)(C)[C@H](Oc7ccc(C#N)c(Cl)c7)C6(C)C)cn5)C4)C3)cc1)=NC(Cc1ncco1)c1nnc(C)n1-2 (stereo partly shown)", "GI50", "< 500 nM"],
  ["Cc1sc2c(c1C)C(c1ccc(C(=O)N3CCC(C(=O)c4ncc(C(=O)N[C@H]5C(C)(C)[C@H](Oc6ccc(C#N)c(Cl)c6)C5(C)C)cn4)CC3)cc1)=N[C@@H](Cc1ncco1)c1nnc(C)n1-2", "GI50", "> 3000 nM"],
  ["Cc1sc2c(c1C)C(c1ccc([C@H]3C[C@@H](C[C@@H]4CCCN(c5ncc(C(=O)N[C@H]6C(C)(C)[C@H](Oc7ccc(C#N)c(Cl)c7)C6(C)C)cn5)C4)C3)cc1)=N[C@@H](Cc1ncco1)c1nnc(C)n1-2", "GI50", "> 3000 nM"],
  ["Cc1sc2c(c1C)C(c1ccc(N3CCC[C@H](C(=O)NCc4ncc(C(=O)N[C@H]5C(C)(C)[C@H](Oc6ccc(C#N)c(Cl)c6)C5(C)C)cn4)C3)cc1)=N[C@@H](Cc1ncco1)c1nnc(C)n1-2 [Compound I-332]", "GI50", "> 3000 nM"],
  ["Cc1sc2c(c1C)C(c1ccc(C(=O)N3CCC[C@@H](Cc4ncc(C(=O)N[C@H]5C(C)(C)[C@H](Oc6ccc(C#N)c(Cl)c6)C5(C)C)cn4)C3)cc1)=N[C@@H](Cc1ncco1)c1nnc(C)n1-2", "GI50", "1500 to 3000 nM"],
  ["Cc1sc2c(c1C)C(c1ccc([C@H]3C[C@H]([C@@H]4CCCN(c5ncc(C(=O)N[C@H]6C(C)(C)[C@H](Oc7ccc(C#N)c(Cl)c7)C6(C)C)cn5)C4)C3)cc1)=N[C@@H](Cc1ncco1)c1nnc(C)n1-2", "GI50", "< 500 nM"],
  ["Cc1sc2c(c1C)C(c1ccc(N3CCC4(CC3)CC(Cc3ncc(C(=O)N[C@H]5C(C)(C)[C@H](Oc6ccc(C#N)c(Cl)c6)C5(C)C)cn3)C4)cc1)=NC(Cc1ncco1)c1nnc(C)n1-2 (stereo partly shown) [Compound I-460]", "GI50", "< 500 nM"],
  ["Cc1sc2c(c1C)C(c1ccc(CCCOC3CCN(c4ncc(C(=O)N[C@H]5C(C)(C)[C@H](Oc6ccc(C#N)c(Cl)c6)C5(C)C)cn4)CC3)cc1)=C[C@H](Cc1ccncn1)c1nnc(C)n1-2", "GI50", "< 500 nM"],
  ["Cc1sc2c(c1C)C(c1ccc(C3CC(C4CCN(c5cnc(C(=O)N[C@H]6C(C)(C)[C@H](Oc7ccc(C#N)c(Cl)c7)C6(C)C)cn5)CC4)C3)cc1)=NC(C)c1nnc(C)n1-2 (stereo partly shown) [Compound I-471]", "GI50", "> 3000 nM"]
]}

These entries and their values trace back to patent US20260062422A1.
